biological target: V-type proton ATPase subunit B, brain isoform (Bos taurus); test: Inhibition of V-ATPase-driven proton transport in membrane vesicles derived from bovine chromaffin granules (bCG); Potency ratio expressed as IC50 of compound/IC50 of baf A1
Lab note: anything with Potency ratio at or over 5 counts as Condition met; the rest go in Condition not met.

# Molecule, Cat
data = [
    ("C/C=C/CC(O)[C@@H](C)[C@H](O)[C@H](C)[C@H]1OC(=O)/C(OC)=C/C(C)=C/[C@@H](C)[C@@H](O)[C@@H](C)C/C(C)=C/C=C/[C@@H]1OC (some centres not stated)", "Condition not met"),
    ("CO/C1=C\\C(C)=C\\[C@@H](C)[C@@H](O)[C@@H](C)C/C(C)=C/C=C/[C@H](OC)[C@@H]([C@@H](C)[C@@H](O)[C@H](C)[C@@]2(O)C[C@@H](N3CCCCC3)[C@H](C)[C@@H](C(C)C)O2)OC1=O", "Condition met"),
    ("CCO[C@@H]1C[C@](O)([C@@H](C)[C@H](O)[C@H](C)[C@H]2OC(=O)/C(OC)=C/C(C)=C/[C@@H](C)[C@@H](O)[C@@H](C)C/C(C)=C/C=C/[C@@H]2OC)O[C@H](C(C)C)[C@H]1C", "Condition not met"),
    ("CO/C1=C\\C(C)=C\\[C@@H](C)[C@@H](O)[C@@H](C)C/C(C)=C/C=C/[C@H](OC)[C@@H]([C@@H](C)[C@@H](O)[C@H](C)[C@@]2(OC)C[C@@H](O)[C@H](C)[C@@H](C(C)C)O2)OC1=O", "Condition not met"),
    ("CO/C1=C\\C(C)=C\\[C@@H](C)[C@@H](O)[C@@H](C)C/C(C)=C/C=C/[C@H](OC)[C@@H]([C@@H](C)[C@@H](O)[C@H](C)C(=O)/C=C/[C@H](C)C(O)C(C)C)OC1=O (some centres not stated)", "Condition met"),
    ("CO/C1=C\\C(C)=C\\[C@@H](C)C(=O)[C@@H](C)C/C(C)=C/C=C/[C@H](OC)[C@@H]([C@@H](C)[C@@H](O)[C@H](C)[C@@]2(O)C[C@@H](O)[C@H](C)[C@@H](C(C)C)O2)OC1=O", "Condition met"),
]

###

target: V-type proton ATPase subunit B, brain isoform (Bos taurus); test: Inhibition of V-ATPase-driven proton transport in membrane vesicles derived from bovine chromaffin granules (bCG); Potency ratio expressed as IC50 of compound/IC50 of baf A1
Catalogue of Potency ratio readings, one per entry.

# Compound, Potency ratio
rows = [
    ("COC1/C=C(\\C)C[C@@H](C)[C@@H](O)[C@@H](C)CC(C)/C=C/CC(OC)[C@@H]([C@@H](C)[C@@H](O)[C@H](C)[C@@]2(O)C[C@@H](O)[C@H](C)[C@@H](C(C)C)O2)OC1=O (stereo not given in full)", 2110),
    ("CO/C1=C\\C(C)=C\\C(C)C(=O)[C@@H](C)C/C(C)=C/C=C/C(OC)[C@@H]([C@@H](C)C(=O)[C@H](C)C2=CC(=O)[C@H](C)[C@@H](C(C)C)O2)OC1=O (stereo not given in full)", 3050),
    ("COC(=O)/C(=C/C(C)=C/[C@@H](C)[C@@H](O)[C@@H](C)C/C(C)=C/C=C/[C@H](OC)[C@H](O)[C@@H](C)[C@@H](O)[C@H](C)[C@@]1(O)C[C@@H](O)[C@H](C)[C@@H](C(C)C)O1)OC", 330),
    ("C/C=C/CC(=O)[C@@H](C)[C@H](O)[C@H](C)[C@H]1OC(=O)/C(OC)=C/C(C)=C/[C@@H](C)[C@@H](O)[C@@H](C)C/C(C)=C/C=C/[C@@H]1OC", 21),
    ("CO/C1=C\\C(C)=C\\[C@@H](C)[C@@H](O)[C@@H](C)C/C(C)=C/C=C/[C@H](OC)[C@@H]([C@@H](C)[C@@H](O)[C@H](C)[C@@]2(O)C[C@@H](NC3CCCCC3)[C@H](C)[C@@H](C(C)C)O2)OC1=O", 9.2),
]
